assay: Plasma stability, human plasma; settings: human plasma, 37° C., timepoint 0 h; calibration range 0.1 to 10 μM
Bridge positions count the residues as written; N and C are the ends. Peptide text beside a SMILES is read from it.
endpoint_label: Tube 1 (compound concentration) (x)
State the answer as a number, implicitly in x.

molecule: CC(=O)N1CCC[C@H]1C(=O)N[C@@H](CO)C(=O)N[C@@H](CCCNC(=N)N)C(=O)N[C@@H](CC(C)C)C(=O)N[C@@H](CCC(=O)O)C(=O)N[C@H]1CCCCNC(=O)CC[C@@H](C(=O)N[C@@H](CCCNC(=N)N)C(=O)N[C@@H](CC(C)C)C(=O)N[C@H](C(=O)N[C@@H](CCC(=O)O)C(N)=O)[C@@H](C)O)NC(=O)[C@H](CCCNC(=N)N)NC(=O)[C@H](CC(C)C)NC(=O)[C@H](CCC(=O)O)NC1=O [SD15805] (Ac-PSRLEKELRERLTE-NH2; lactam 6-10)
recorded_result: 2.894

Next:
Task: Find the recorded Tube 1 (compound concentration) belonging to CC(=O)N1CCC[C@H]1C(=O)N[C@@H](CO)C(=O)N[C@@H](CCCNC(=N)N)C(=O)N[C@@H](CC(C)C)C(=O)N[C@H]1CCC(=O)NCCCC[C@@H](C(=O)N[C@@H](CCCNC(=N)N)C(=O)N[C@@H](CCCNC(=N)N)C(=O)N[C@@H](CC(C)C)C(=O)N[C@H](C(=O)N[C@@H](CCC(=O)O)C(N)=O)[C@@H](C)O)NC(=O)[C@H](CC(C)C)NC(=O)[C@H](CCC(=O)O)NC(=O)[C@H](CCC(=O)O)NC1=O [SD15806] (Ac-PSRLEEELKRRLTE-NH2; lactam 5-9) and report it.
Output: 3.114

----------
The following compounds are listed with their measured Tube 1 (compound concentration) values.
assay: Plasma stability, mouse plasma; settings: mouse plasma, 37° C., timepoint 0 h; calibration range 0.1 to 10 μM
Bridge positions count the residues as written; N and C are the ends. Peptide text beside a SMILES is read from it.
Form rule: numeric answer, no unit written next to it.

compound: CC(=O)N[C@@H](CO)C(=O)N[C@@H](CCCNC(=N)N)C(=O)N[C@@H](CC(C)C)C(=O)N[C@@H](CCC(=O)O)C(=O)N[C@H]1CCC(=O)NCCCC[C@@H](C(=O)N[C@@H](CCCNC(=N)N)C(=O)N[C@@H](CC(C)C)C(=O)N[C@H](C(=O)N[C@@H](CCC(=O)O)C(N)=O)[C@@H](C)O)NC(=O)[C@H](CCCNC(=N)N)NC(=O)[C@H](CC(C)C)NC(=O)[C@H](CCC(=O)O)NC1=O [SD15194] (Ac-SRLEEELRKRLTE-NH2; lactam 5-9)
Tube 1 (compound concentration): 2.606
--
compound: CC(=O)N[C@@H](CO)C(=O)N[C@@H](CCCNC(=N)N)C(=O)N[C@@H](CC(C)C)C(=O)N[C@@H](CCC(=O)O)C(=O)N[C@@H](CCC(=O)O)C(=O)N[C@@H](CCC(=O)O)C(=O)N[C@@H](CC(C)C)C(=O)N[C@@H](CCCNC(=N)N)C(=O)N[C@H]1CCCCNC(=O)CC[C@@H](C(N)=O)NC(=O)[C@H]([C@@H](C)O)NC(=O)[C@H](CC(C)C)NC(=O)[C@H](CCCNC(=N)N)NC1=O [SD15193] (Ac-SRLEEELRKRLTE-NH2; lactam 9-13)
Tube 1 (compound concentration): 3.315

Next:
Task: Find the recorded Tube 1 (compound concentration) belonging to CC(=O)N[C@@H](CO)C(=O)N[C@@H](CCCNC(=N)N)C(=O)N[C@@H](CC(C)C)C(=O)N[C@@H](CCC(=O)O)C(=O)N[C@H]1CCC(=O)NCCCC[C@@H](C(=O)N[C@@H](CCCNC(=N)N)C(=O)N[C@@H](CCCNC(=N)N)C(=O)N[C@@H](CC(C)C)C(=O)N[C@H](C(=O)N[C@@H](CCC(=O)O)C(N)=O)[C@@H](C)O)NC(=O)[C@H](CC(C)C)NC(=O)[C@H](CCC(=O)O)NC1=O [SD15192] (Ac-SRLEEELKRRLTE-NH2; lactam 5-8) and report it.
Output: 2.731
